Reference for the values: patent US20210317092A1

Task for the reader: assign each of the following compounds its reported pIC50.
- target-of-assay: human Bradykinin B1 receptor (Homo sapiens, UniProt P46663)
- Construct: host or cells: CHO-K1
- Sequence (P46663 1-353): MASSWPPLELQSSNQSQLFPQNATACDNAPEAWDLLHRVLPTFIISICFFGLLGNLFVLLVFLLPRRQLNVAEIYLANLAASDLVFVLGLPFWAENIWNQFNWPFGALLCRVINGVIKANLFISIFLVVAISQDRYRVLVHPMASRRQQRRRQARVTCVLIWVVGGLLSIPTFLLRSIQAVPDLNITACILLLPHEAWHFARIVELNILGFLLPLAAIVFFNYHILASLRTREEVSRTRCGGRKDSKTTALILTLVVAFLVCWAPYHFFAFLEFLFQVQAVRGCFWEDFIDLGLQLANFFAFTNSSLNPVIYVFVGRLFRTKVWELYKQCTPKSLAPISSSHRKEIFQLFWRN
- assay: Calcium flux Assay (FLIPR) with recombinant CHO-K1 cells expressing human Bradykinin B1 receptor, in presence (hB1 IC50) or absence (hB1 free IC50) of 0.1% BSA
- Type: cell-based
- experimental-context: in absence of 0.1% BSA, read-out: hB1 free IC50
In textbook form, pIC50 equals minus log to base ten of the concentration in mol/L.

Exam item: Consider the compound CCn1cc(-c2ccc(NC(=O)C3(c4cccc(Cl)c4)CC3)cc2-c2nnn[nH]2)cn1 and give its recorded pIC50.
Marked response: 7.39

Exam item: Consider the compound O=C(Nc1ccc(-c2ccc(C(F)(F)F)cc2)c(-c2nnn[nH]2)c1)C1(c2cccc(Cl)c2)CC1 and give its recorded pIC50.
Marked response: 8.57

Exam item: Consider the compound O=C(Nc1ccc(-c2ccc(C(F)F)nc2)c(-c2nnn[nH]2)c1)C1(c2ccc(Cl)cc2F)CC1 and give its recorded pIC50.
Marked response: 8.20

Exam item: Consider the compound CC(F)(F)c1ccc(-c2ccc(NC(=O)C3(c4cccc(Cl)c4)CC3)cc2-c2nnn[nH]2)cn1 and give its recorded pIC50.
Marked response: 7.08

Exam item: Consider the compound O=C(Nc1cc(F)c(-c2ccc(C(F)(F)F)nc2)c(-c2nnn[nH]2)c1)C1(c2cccc(Cl)c2)CC1 and give its recorded pIC50.
Marked response: 7.27

Exam item: Consider the compound CS(=O)(=O)c1cncc(-c2ccc(NC(=O)C3(c4cccc(Cl)c4)CC3)cc2-c2nnn[nH]2)c1 and give its recorded pIC50.
Marked response: 6.36

Exam item: Consider the compound CCc1cnn(-c2ccc(NC(=O)C3(c4cccc(Cl)c4)CC3)cc2-c2nnn[nH]2)c1 and give its recorded pIC50.
Marked response: 6.46

Exam item: Consider the compound CCC1CCN(c2ccc(NC(=O)C3(c4ccc(OC(F)(F)F)cc4F)CC3)cc2-c2nnn[nH]2)C1=O (centres unmarked) and give its recorded pIC50.
Marked response: 7.26

Exam item: Consider the compound O=C(Nc1ccc(-c2ccc(C(F)F)nc2)c(-c2nnn[nH]2)c1)C1(c2ccc(C(F)(F)F)cc2)CC1 and give its recorded pIC50.
Marked response: 7.76

Exam item: Consider the compound Cc1nc(C(F)(F)F)cn1-c1ccc(NC(=O)C2(c3ccc(OC(F)(F)F)cc3F)CC2)cc1-c1nnn[nH]1 and give its recorded pIC50.
Marked response: 6.27

Exam item: Consider the compound O=C(Nc1ccc(-c2ccc(C(F)(F)F)nc2)c(-c2nnn[nH]2)c1F)C1(c2ccc(C(F)(F)F)cc2F)CC1 and give its recorded pIC50.
Marked response: 7.24

Exam item: Consider the compound O=C(Nc1ccc(-c2ccc(C(F)F)nc2)c(-c2nnn[nH]2)c1)C1(c2ccc(C(F)(F)F)cc2F)CC1 and give its recorded pIC50.
Marked response: 8.45

Exam item: Consider the compound O=C(Nc1ccc(-c2cnc(C(F)(F)F)nc2)c(-c2nnn[nH]2)c1)C1(c2ccc(C(F)(F)F)cc2)CC1 and give its recorded pIC50.
Marked response: 6.77

Exam item: Consider the compound CCOc1ccc(-c2ccc(NC(=O)C3(c4ccc(F)c(OC)c4)CC3)cc2-c2nnn[nH]2)cn1 and give its recorded pIC50.
Marked response: 7.22

====

- target-of-assay: human Bradykinin B1 receptor (Homo sapiens, UniProt P46663)
- Construct: host or cells: CHO-K1
- Sequence (P46663 1-353): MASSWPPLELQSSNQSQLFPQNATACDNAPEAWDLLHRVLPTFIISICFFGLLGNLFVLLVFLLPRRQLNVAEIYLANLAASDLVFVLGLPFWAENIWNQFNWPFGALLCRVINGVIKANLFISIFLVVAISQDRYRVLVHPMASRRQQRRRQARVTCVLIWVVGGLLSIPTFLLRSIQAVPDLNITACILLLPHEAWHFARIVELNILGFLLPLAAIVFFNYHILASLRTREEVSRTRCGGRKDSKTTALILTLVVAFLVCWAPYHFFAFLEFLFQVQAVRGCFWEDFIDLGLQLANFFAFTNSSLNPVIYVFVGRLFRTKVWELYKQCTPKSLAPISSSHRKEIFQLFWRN
- assay: Calcium flux Assay (FLIPR) with recombinant CHO-K1 cells expressing human Bradykinin B1 receptor, in presence (hB1 IC50) or absence (hB1 free IC50) of 0.1% BSA
- Format: cell-based
- experimental-context: in presence of 0.1% BSA, read-out: hB1 IC50
measurement-type: pIC50
In textbook form, pIC50 equals minus log to base ten of the concentration in mol/L.

Exam item: Consider the compound COc1ccc(-c2ccc(NC(=O)C3(c4ccc(Cl)nc4)CC3)cc2-c2nnn[nH]2)cc1OC and give its recorded pIC50.
Marked response: 6.47

Exam item: Consider the compound CN(C)c1ccc(-c2ccc(NC(=O)C3(c4cccc(Cl)c4F)CC3)cc2-c2nnn[nH]2)cn1 and give its recorded pIC50.
Marked response: 7.06

Exam item: Consider the compound COc1ccc(-c2ccc(NC(=O)C3(c4ccc(F)cc4F)CC3)cc2-c2nnn[nH]2)cc1OC and give its recorded pIC50.
Marked response: 7.23

Exam item: Consider the compound CCOc1ccc(-c2ccc(NC(=O)C3(c4cc(F)cc(Cl)c4)CC3)cc2-c2nnn[nH]2)cn1 and give its recorded pIC50.
Marked response: 7.62

Exam item: Consider the compound Cc1ncc(-c2ccc(NC(=O)C3(c4cccc(Cl)c4F)CC3)cc2-c2nnn[nH]2)cn1 and give its recorded pIC50.
Marked response: 6.51

Exam item: Consider the compound CCOc1ccc(-c2ccc(NC(=O)C3(c4ccc(F)c(F)c4)CC3)cc2-c2nnn[nH]2)cn1 and give its recorded pIC50.
Marked response: 7.48

Exam item: Consider the compound CCOc1ccc(-c2cc(O)c(NC(=O)C3(c4ccc(Cl)cc4)CC3)cc2-c2nnn[nH]2)cn1 and give its recorded pIC50.
Marked response: 7.08

Exam item: Consider the compound COc1ccc(-c2c(F)cc(NC(=O)C3(c4ccc(F)cc4F)CC3)cc2-c2nnn[nH]2)cc1OC and give its recorded pIC50.
Marked response: 7.27

Exam item: Consider the compound CCOc1ccc(-c2ccc(NC(=O)C3(c4ccc(C(F)(F)F)cc4)CC3)cc2-c2nnn[nH]2)cn1 and give its recorded pIC50.
Marked response: 7.96

Exam item: Consider the compound CCOc1ccc(-c2ccc(NC(=O)C3(c4ccccc4Cl)CC3)cc2-c2nnn[nH]2)cn1 and give its recorded pIC50.
Marked response: 7.43

Exam item: Consider the compound CCOc1ccc(-c2ccc(NC(=O)C3(c4cc(F)ccc4C)CC3)cc2-c2nnn[nH]2)cn1 and give its recorded pIC50.
Marked response: 6.61

Exam item: Consider the compound COc1ccc(-c2ccc(NC(=O)C3(c4ccc(Cl)cc4F)CC3)cc2-c2nnn[nH]2)cc1OC and give its recorded pIC50.
Marked response: 7.40

Exam item: Consider the compound CCCc1cccc(C2(C(=O)Nc3ccc(-c4ccc(OCC)nc4)c(-c4nnn[nH]4)c3)CC2)c1 and give its recorded pIC50.
Marked response: 8.18

Exam item: Consider the compound COc1ccc(-c2ccc(NC(=O)C3(c4ccccc4F)CC3)cc2-c2nnn[nH]2)cc1OC and give its recorded pIC50.
Marked response: 7.26

Exam item: Consider the compound CCOc1ccc(-c2ccc(NC(=O)C3(c4cccc(Cl)c4)CC3)cc2-c2nnn[nH]2)cn1 and give its recorded pIC50.
Marked response: 7.47

Exam item: Consider the compound COc1ccc(-c2ccc(NC(=O)C3(c4cccc(Cl)c4)CC3)cc2-c2nnn[nH]2)cc1OC and give its recorded pIC50.
Marked response: 7.65

Exam item: Consider the compound N#Cc1ncc(-c2ccc(NC(=O)C3(c4cccc(Cl)c4)CC3)cc2-c2nnn[nH]2)cn1 and give its recorded pIC50.
Marked response: 6.03

Exam item: Consider the compound CCc1ccc(C2(C(=O)Nc3ccc(-c4ccc(OC)c(OC)c4)c(-c4nnn[nH]4)c3)CC2)cc1 and give its recorded pIC50.
Marked response: 7.44

Exam item: Consider the compound CC(C)(O)c1ccc(-c2ccc(NC(=O)C3(c4cccc(Cl)c4)CC3)cc2-c2nnn[nH]2)cn1 and give its recorded pIC50.
Marked response: 6.79

====

Task for the reader: assign each of the following compounds its reported pIC50.
- target-of-assay: human Bradykinin B1 receptor (Homo sapiens)
- Construct: host or cells: CHO-K1
- assay: Calcium flux Assay (FLIPR) with recombinant CHO-K1 cells expressing human Bradykinin B1 receptor, in presence (hB1 IC50) or absence (hB1 free IC50) of 0.1% BSA
- Assay type: cell-based
- experimental-context: in absence of 0.1% BSA, read-out: hB1 free IC50
In textbook form, pIC50 equals minus log to base ten of the concentration in mol/L.

Exam item: Consider the compound O=C(Nc1ccc(-n2cc(C(F)F)cn2)c(-c2nnn[nH]2)c1)C1(c2cccc(Cl)c2)CC1 and give its recorded pIC50.
Marked response: 6.09

Exam item: Consider the compound COc1ccc(-c2c(F)cc(NC(=O)C3(c4ccc(C(F)(F)F)cc4)CC3)cc2-c2nnn[nH]2)cc1OC and give its recorded pIC50.
Marked response: 8.08

Exam item: Consider the compound O=C(Nc1ccc(-n2cc(C(F)F)cn2)c(-c2nnn[nH]2)c1)C1(c2ccc(F)c(F)c2)CC1 and give its recorded pIC50.
Marked response: 5.92

Exam item: Consider the compound COc1cc(-c2ccc(NC(=O)C3(c4cccc(Cl)c4)CC3)cc2-c2nnn[nH]2)cc(C(F)(F)F)c1 and give its recorded pIC50.
Marked response: 6.24

Exam item: Consider the compound O=C(Nc1cc(Cl)c(-c2ccc(C(F)(F)F)nc2)c(-c2nnn[nH]2)c1)C1(c2ccc(C(F)(F)F)cc2F)CC1 and give its recorded pIC50.
Marked response: 7.73

Exam item: Consider the compound O=C(Nc1ccc(-c2ccc(C(F)(F)F)nc2)c(-c2nnn[nH]2)c1)C1(c2ccc(C(F)(F)F)c(F)c2)CC1 and give its recorded pIC50.
Marked response: 8.17

Exam item: Consider the compound CC(F)(F)c1ccc(-c2ccc(NC(=O)C3(c4ccc(OC(F)(F)F)cc4)CC3)cc2-c2nnn[nH]2)cn1 and give its recorded pIC50.
Marked response: 8.44

Exam item: Consider the compound O=C(Nc1ccc(-c2ccc(C(F)(F)F)nc2)c(-c2nnn[nH]2)c1)C1(c2ccc(OC(F)(F)F)cc2F)CC1 and give its recorded pIC50.
Marked response: 8.22

Exam item: Consider the compound O=C(Nc1ccc(-c2ccc(C(F)(F)F)nc2)c(-c2nnn[nH]2)c1)C1(c2ccc(F)c(Cl)c2)CC1 and give its recorded pIC50.
Marked response: 7.65

Exam item: Consider the compound O=C(Nc1ccc(-c2ccnc(C(F)F)c2)c(-c2nnn[nH]2)c1)C1(c2cccc(Cl)c2)CC1 and give its recorded pIC50.
Marked response: 6.01

Exam item: Consider the compound CCCOc1ccc(-c2ccc(NC(=O)C3(c4cccc(Cl)c4)CC3)cc2-c2nnn[nH]2)cn1 and give its recorded pIC50.
Marked response: 8.25

Exam item: Consider the compound O=C(Nc1cnc(-c2cnn(C(F)F)c2)c(-c2nnn[nH]2)c1)C1(c2ccc(C(F)(F)F)cc2F)CC1 and give its recorded pIC50.
Marked response: 5.76

Exam item: Consider the compound O=C(Nc1ccc(-c2cnc(C(F)(F)F)nc2)c(-c2nnn[nH]2)c1)C1(c2ccc(C(F)(F)F)cc2F)CC1 and give its recorded pIC50.
Marked response: 6.67

Exam item: Consider the compound O=C(Nc1ccc(-c2ccc(C(F)(F)F)nc2)c(-c2nnn[nH]2)c1)C1(c2ccc(F)c(F)c2)CC1 and give its recorded pIC50.
Marked response: 7.02
